Experiment: Relative Energy Difference (RED) with cholesterol, calculated from HSP
Details: RED=Ra/Ro, Ro of cholesterol 12.6
Reported metric: Relative Energy Difference (RED) with cholesterol
Just the number, please, no unit after it.

Solved cases below.
Req: Fill in: Relative Energy Difference (RED) with cholesterol of CC(C)=CCCC(C)=CC=O is ___
Resp: 0.7

Req: Recorded Relative Energy Difference (RED) with cholesterol for CC12CCC(CC1)C(C)(C)O2 , please?
Resp: 0.77

Req: Request the reported Relative Energy Difference (RED) with cholesterol associated with CC(C)C12CCC(C)(CC1)O2
Resp: 0.70

Req: If you can, please state the reported Relative Energy Difference (RED) with cholesterol value of CC(C)=CCCC(C)CC=O (centres unmarked) .
Resp: 0.78

Others:
Req: Data request, read-out Relative Energy Difference (RED) with cholesterol, for CCO [Ethanol, reference compound]
Resp: 1.32
